Data provenance is BigSolDB 2.1.

# conditions used: in isopropanol, 298.15 K
reported metric: solubility (mole fraction)

What solubility (mole fraction) value was documented for this compound, CCCSc1ccc2nc(NC(=O)OC)[nH]c2c1 ?
0.000229

====

# conditions used: in acetone, 308.15 K
reported metric: solubility (mole fraction)
// keep it numeric: no unit symbol after the value

Look up solubility (mole fraction) for this compound: CCCSc1ccc2nc(NC(=O)OC)[nH]c2c1
0.00402

====

# conditions used: in methanol, 303.15 K
reported metric: solubility (mole fraction)
Give the figure by itself; no unit, no explanation.

// query solubility (mole fraction) value for entry CCCSc1ccc2nc(NC(=O)OC)[nH]c2c1
0.00023
